Target: Signal transducer and activator of transcription 1-alpha/beta (Homo sapiens, UniProt P42224)
Sequence (P42224 whole entry): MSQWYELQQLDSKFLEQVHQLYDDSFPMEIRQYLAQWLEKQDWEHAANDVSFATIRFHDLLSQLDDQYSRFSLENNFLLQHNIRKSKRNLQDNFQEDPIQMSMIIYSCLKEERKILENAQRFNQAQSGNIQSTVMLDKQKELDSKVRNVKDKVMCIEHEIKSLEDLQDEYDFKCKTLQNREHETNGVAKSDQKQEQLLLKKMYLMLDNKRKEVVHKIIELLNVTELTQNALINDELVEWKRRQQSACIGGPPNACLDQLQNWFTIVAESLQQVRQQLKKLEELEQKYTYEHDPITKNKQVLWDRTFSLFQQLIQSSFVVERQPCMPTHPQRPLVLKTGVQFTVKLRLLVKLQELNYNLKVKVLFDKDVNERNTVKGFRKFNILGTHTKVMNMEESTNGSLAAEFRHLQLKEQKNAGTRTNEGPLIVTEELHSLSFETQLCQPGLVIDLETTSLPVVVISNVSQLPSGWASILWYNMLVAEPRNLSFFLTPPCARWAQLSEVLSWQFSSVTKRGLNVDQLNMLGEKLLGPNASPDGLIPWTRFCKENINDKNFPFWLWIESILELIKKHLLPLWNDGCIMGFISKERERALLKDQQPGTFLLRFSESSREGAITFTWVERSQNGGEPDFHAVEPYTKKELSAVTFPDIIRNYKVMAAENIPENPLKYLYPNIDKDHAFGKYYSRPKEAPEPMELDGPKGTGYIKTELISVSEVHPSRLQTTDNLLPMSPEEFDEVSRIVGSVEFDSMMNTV
We begin with a simple list: items and their reported IC50.

| Compound | IC50 |
| --- | --- |
| CC1Sc2nnc(-c3[nH]nc4c3CCC4)n2N=C1c1ccc(Cl)c(Cl)c1 (configuration not stated) | > 50 µM |

Consider the record given below.
For the compound CC1(C)Sc2nnc(-c3[nH]nc4c3CCC4)n2N=C1c1ccc(Cl)c(Cl)c1 , what IC50 is on record?
> 50 µM
